system: KRAS G12C and cRAF interaction (Homo sapiens, UniProt P01116, C118S/C51S/C80L/G12C)
Construct: truncated version comprising amino acids 1-169
Sequence (P01116 1-169 isoform P01116-2 G12C/C51S/C80L/C118S): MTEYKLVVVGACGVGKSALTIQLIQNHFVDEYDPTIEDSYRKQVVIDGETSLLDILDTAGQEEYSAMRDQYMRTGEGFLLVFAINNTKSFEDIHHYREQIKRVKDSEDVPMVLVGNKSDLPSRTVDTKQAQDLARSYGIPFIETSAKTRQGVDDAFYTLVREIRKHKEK
assay_explanation: Inhibition of KRAS G12C and cRAF binding (AlphaScreen)
setup_conditions: KRAS G12C (Cys-light, aa 1-169) preloaded with GMPPNP, cRaf RBD (aa 50-131), 2 hours incubation
pIC50: −log10 of the molar value.
I'd be grateful if you could share measured pIC50 for these entries.

Hi! Can you tell me pIC50 for each of these molecules?
1. O=C(/C=C/CN1[C@@H]2CC[C@H]1COC2)N1CCN(c2nc(OC[C@@]34CCCN3C[C@H](F)C4)nc3c(F)c(-c4cccc(Cl)c4C4CC4)ncc23)CC12COC2 [Example 24]
2. Cc1nccc(/C=C(\F)C(=O)N2CCN(c3nc(OC[C@@]45CCCN4C[C@H](F)C5)nc4c(F)c(-c5cccc6ccc(F)c(F)c56)ncc34)CC23COC3)n1 [Example 60]
3. O=C(/C=C/CN1[C@@H]2CC[C@H]1COC2)N1CCN(c2nc(OC[C@@]34CCCN3C[C@H](F)C4)nc3c(F)c(-c4ccccc4C(F)F)ncc23)CC12COC2 [Example 26]

> 8.00
> 8.00
6.30 to 7.00

====

system: KRAS G12C and cRAF interaction (Homo sapiens, UniProt P01116, C118S/C51S/C80L/G12C)
Construct: truncated version comprising amino acids 1-169
assay_explanation: Inhibition of KRAS G12C and cRAF binding (AlphaScreen)
setup_conditions: KRAS G12C (Cys-light, aa 1-169) preloaded with GMPPNP, cRaf RBD (aa 50-131), 2 hours incubation
I'd be grateful if you could share measured IC50 for these entries.

INSERT INTO measurements (chemical_string, assay_result) VALUES
  ('C=CC(=O)N1CCN(c2nc(OC[C@@]34CCCN3C[C@H](F)C4)nc3c(F)c(-c4c(C)cc(F)c5[nH]ncc45)ncc23)CC12COC2', '≥ 0.5 µM');

Hi! Can you tell me IC50 for each of these compounds?
1. C=CC(=O)N1CCN(c2nc(OC[C@@]34CCCN3C[C@H](F)C4)nc3c(F)c(-c4ccc(F)c5sc(N)nc45)c(Cl)cc23)C[C@]12CCOC2
2. Cc1nccc(/C=C/C(=O)N2CCN(c3nc(OCC45CCCN4CCC5)nc4c(F)c(-c5cccc6ccc(F)c(Cl)c56)ncc34)CC23COC3)n1
3. C=CC(=O)N1CCN(c2nc(OC[C@@]34CCCN3C[C@H](F)C4)nc3c(F)c(-c4cccc5ccc(F)c(F)c45)ncc23)C[C@]12CCOC2
4. Cc1nccc(/C=C/C(=O)N2CCN(c3nc(OC[C@@]45CCCN4C[C@H](F)C5)nc4c(F)c(-c5cc(O)cc(Cl)c5C5CC5)ncc34)CC23COC3)n1
5. O=C(/C=C/CN1C[C@H]2C[C@@H]1CO2)N1CCN(c2nc(OC[C@@]34CCCN3C[C@H](F)C4)nc3c(F)c(-c4cccc5ccc(F)c(Cl)c45)ncc23)CC12COC2
6. O=C(/C=C/CN1C[C@H]2C[C@@H]1CO2)N1CCN(c2nc(OC[C@@]34CCCN3C[C@H](F)C4)nc3c(F)c(-c4cccc5ccc(F)c(F)c45)ncc23)CC12COC2

≥ 0.5 µM
0.1 to 0.5 µM
≥ 0.5 µM
< 0.01 µM
< 0.01 µM
< 0.01 µM

Hi! Can you tell me IC50 for each of these compounds?
1. Cc1cc(/C=C/C(=O)N2CCN(c3nc(OC[C@@]45CCCN4C[C@H](F)C5)nc4c(F)c(-c5cccc(Cl)c5C5CC5)ncc34)CC23COC3)nc(C)n1
2. Cc1cc(/C=C/C(=O)N2CCN(c3nc(OC[C@@]45CCCN4C[C@H](F)C5)nc4c(F)c(-c5cccc6ccc(F)c(Cl)c56)ncc34)CC23COC3)nc(C)n1
3. C=CC(=O)N1CCN(c2nc(OC[C@@]34CCCN3C[C@H](F)C4)nc3c(F)c(-c4c(Cl)c(C)cc5[nH]ncc45)ncc23)CC12COC2

1. ≥ 0.5 µM
2. 0.01 to 0.1 µM
3. 0.01 to 0.1 µM

Give reported IC50 value for O=C(/C=C/CN1CC2CC(C1)O2)N1CCN(c2nc(OC[C@@]34CCCN3C[C@H](F)C4)nc3c(F)c(-c4cccc5ccc(F)c(F)c45)ncc23)CC12COC2
< 0.01 µM

====

system: KRAS G12C and cRAF interaction (Homo sapiens, UniProt P01116, C118S/C51S/C80L/G12C)
Construct: truncated version comprising amino acids 1-169
assay_explanation: Inhibition of KRAS G12C and cRAF binding (AlphaScreen)
Assay type: biochemical
setup_conditions: KRAS G12C (Cys-light, aa 1-169) preloaded with GMPPNP, cRaf RBD (aa 50-131), 2 hours incubation
parameter_measured: IC50

INSERT INTO measurements (molecule, assay_result) VALUES
  ('C=CC(=O)N1CCN(c2nc(OC[C@@]34CCCN3C[C@H](F)C4)nc3c(F)c(-c4cc(O)cc(Cl)c4C4CC4)ncc23)CC12CCOC2 (stereo partly drawn)', '< 10 nM'),
  ('CN1CC[C@@H]1/C=C/C(=O)N1CCN(c2nc(OC[C@@]34CCCN3C[C@H](F)C4)nc3c(F)c(-c4cccc5cccc(Cl)c45)ncc23)CC12COC2', '10 to 100 nM'),
  ('C=CC(=O)N1CCN(c2nc(OC[C@@]34CCCN3C[C@H](F)C4)nc3c(F)c(-c4cc(O)cc(Cl)c4C(F)(F)F)ncc23)CC12COC2', '< 10 nM'),
  ('Cc1nccc(/C=C/C(=O)N2CCN(c3nc(OC[C@@]45CCCN4C[C@H](F)C5)nc4c(F)c(-c5cccc6ccc(F)c(Cl)c56)ncc34)CC23COC3)n1', '10 to 100 nM'),
  ('O=C(/C=C/CN1CC2CCC(C1)O2)N1CCN(c2nc(OC[C@@]34CCCN3C[C@H](F)C4)nc3c(F)c(-c4cccc5cccc(Cl)c45)ncc23)CC12COC2', '10 to 100 nM');

From here, focus on the item given below.
Give reported IC50 value for CN(C)C/C=C/C(=O)N1CCN(c2nc(OC[C@@]34CCCN3C[C@H](F)C4)nc3c(F)c(-c4cccc5cccc(Cl)c45)ncc23)CC12COC2
10 to 100 nM
